Tested on: N140
method: qHTS profiling for inhibitors of Plasmodium falciparum proliferation (AID 504749); note: nearly all actives have a fitted effect of over 60% in size; note: potency is the fitted concentration of half-maximal effect
condition description: P. falciparum in erythrocytes, SYBR Green DNA, 72 h; series mostly up to 28.7 µM
Results filed as inconclusive are left out. Calls of active or inactive are those of the source. Calls come from the whole dose curve; as a rule, active = well fitted inhibition curve with a large enough effect; inconclusive = small, poorly fitted or top-dose-only effect; inactive = flat fitted curve, though single readings scatter.
result type: Potency

Please review the entries below; each comes with its answer.
# compound, Potency
data = [
    ("O=C(O)CCC/C=C\\C[C@@H]1[C@@H](/C=C/[C@@H](O)COc2cccc(Cl)c2)[C@H](O)C[C@@H]1O", "inactive"),
    ("CC(C)OC(=O)Nc1ccc2nc(-c3cscn3)[nH]c2c1", "inactive"),
    ("O=C(CCCN1CCN2CCCC2C1)c1ccc(F)cc1 (stereo unspecified)", "10 µM (active)"),
    ("O=P(O)(O)OP(=O)(O)OP(=O)(O)O", "inactive"),
    ("CN(C)CCOc1ccc(/C(=C(/CCCl)c2ccccc2)c2ccccc2)cc1", "inactive"),
]

Quick check: Potency of C[C@@](Cc1ccc(O)c(O)c1)(NN)C(=O)O ?
inactive

* * *

Test system: CP291
method: qHTS profiling for inhibitors of Plasmodium falciparum proliferation (AID 504749); note: nearly all actives have a fitted effect of over 60% in size
condition description: P. falciparum in erythrocytes, SYBR Green DNA, 72 h; series mostly up to 28.7 µM
Records with an inconclusive call do not appear. Active and inactive are the calls of the source. Calls come from the whole dose curve; as a rule, active = well fitted inhibition curve with a large enough effect; inconclusive = small, poorly fitted or top-dose-only effect; inactive = flat fitted curve, though single readings scatter.
Would you mind answering with one of these outcomes? Y (active), N (inactive)

# molecule, group
measured = [
    ("CO/N=C(/C(=O)N[C@@H]1C(=O)N2C(C(=O)O)=C(COC(N)=O)CS[C@H]12)c1ccco1", "N"),
]

Assay result, entry S=C1SCN(Cc2ccccc2)CN1Cc1ccccc1 — outcome?
N

Do the same for O[C@@H]([C@H](O)[C@H](O)CBr)[C@H](O)CBr please
N

Do the same for O=C(O)CCCC/C=C(\c1ccccc1)c1cccnc1 please
N

Do the same for OCCCNc1ccccc1 please
N

Do the same for CC(C)(Oc1ccc(C2CCCc3ccccc32)cc1)C(=O)O (stereo not given) please
N

Do the same for O=C(O)c1ccc(NC(=O)[C@H](Cc2ccc(O)cc2)NC(=O)c2ccccc2)cc1 please
N

Do the same for O=P(O)(O)OP(=O)(O)OP(=O)(O)O please
N

Do the same for O=C1c2ccccc2C(=O)C1c1ccc(Cl)cc1 please
N

Do the same for C[C@H](N)C(=O)N[C@@H](C)P(=O)(O)O please
N

Do the same for CCCCCCCCCCCCCCCCCC[N+](C)(C)CCC[Si](OC)(OC)OC please
N

Do the same for O=C1[O][Bi][O]c2ccccc21 please
N

Do the same for O=[n+]1ccn([O-])c2ccccc21 please
N

Do the same for NC(=S)N=Nc1ccc(NN=C(N)N)cc1 please
Y

Do the same for CC1(C)S[C@@H]2[C@H](NC(=O)C3(N)CCCCC3)C(=O)N2[C@H]1C(=O)O please
N

Do the same for CCc1ccc(S(=O)(=O)O)cc1 please
N

Do the same for O=C(Nc1ccc(O)cc1)c1ccccc1O please
N

* * *

Catalogue of compounds with associated Potency
target system: Glucocorticoid receptor (Homo sapiens)
method: GR-GFP Redistribution (AID 450); note: potency is the fitted concentration of half-maximal effect
condition description: U2OS GR-GFP nuclear translocation, laser cytometry, 2 h
The source made the active and inactive calls.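 The calls were made as follows: active = compounds whose dose series gives a full or clear partial fitted curve of increased nuclear translocation; inconclusive = weak partial curve or effect only at the top dose; inactive = no dose-dependent translocation response.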

Please review the entries below; each comes with its answer.
# structure smiles, result type, result
data = [
    ("N[C@@H](Cc1cc(I)c(Oc2ccc(O)c(I)c2)c(I)c1)C(=O)O", "Potency", "> 20.6 µM (inactive)"),
    ("C[C@@](Cc1ccc(O)c(O)c1)(NN)C(=O)O", "Potency", "> 46 µM (inactive)"),
    ("O=C(O)c1ccc(OCCn2ccnc2)cc1", "Potency", "> 20.6 µM (inactive)"),
    ("O=C1NCCN1c1ncc([N+](=O)[O-])s1", "Potency", "> 20.6 µM (inactive)"),
    ("CCc1cn([C@H]2C[C@H](O)[C@@H](CO)O2)c(=O)[nH]c1=O", "Potency", "> 20.6 µM (inactive)"),
]

Now look at this one.
Quick check: Potency of CN1C(=O)OC(C)(C)C1=O ?
> 20.6 µM (inactive)
